- EXPERIMENTAL_SYSTEM: NR1A /2C (Rattus norvegicus, UniProt P35439+Q00961)
- Sequence (Q00961 20-1237, other chains not shown): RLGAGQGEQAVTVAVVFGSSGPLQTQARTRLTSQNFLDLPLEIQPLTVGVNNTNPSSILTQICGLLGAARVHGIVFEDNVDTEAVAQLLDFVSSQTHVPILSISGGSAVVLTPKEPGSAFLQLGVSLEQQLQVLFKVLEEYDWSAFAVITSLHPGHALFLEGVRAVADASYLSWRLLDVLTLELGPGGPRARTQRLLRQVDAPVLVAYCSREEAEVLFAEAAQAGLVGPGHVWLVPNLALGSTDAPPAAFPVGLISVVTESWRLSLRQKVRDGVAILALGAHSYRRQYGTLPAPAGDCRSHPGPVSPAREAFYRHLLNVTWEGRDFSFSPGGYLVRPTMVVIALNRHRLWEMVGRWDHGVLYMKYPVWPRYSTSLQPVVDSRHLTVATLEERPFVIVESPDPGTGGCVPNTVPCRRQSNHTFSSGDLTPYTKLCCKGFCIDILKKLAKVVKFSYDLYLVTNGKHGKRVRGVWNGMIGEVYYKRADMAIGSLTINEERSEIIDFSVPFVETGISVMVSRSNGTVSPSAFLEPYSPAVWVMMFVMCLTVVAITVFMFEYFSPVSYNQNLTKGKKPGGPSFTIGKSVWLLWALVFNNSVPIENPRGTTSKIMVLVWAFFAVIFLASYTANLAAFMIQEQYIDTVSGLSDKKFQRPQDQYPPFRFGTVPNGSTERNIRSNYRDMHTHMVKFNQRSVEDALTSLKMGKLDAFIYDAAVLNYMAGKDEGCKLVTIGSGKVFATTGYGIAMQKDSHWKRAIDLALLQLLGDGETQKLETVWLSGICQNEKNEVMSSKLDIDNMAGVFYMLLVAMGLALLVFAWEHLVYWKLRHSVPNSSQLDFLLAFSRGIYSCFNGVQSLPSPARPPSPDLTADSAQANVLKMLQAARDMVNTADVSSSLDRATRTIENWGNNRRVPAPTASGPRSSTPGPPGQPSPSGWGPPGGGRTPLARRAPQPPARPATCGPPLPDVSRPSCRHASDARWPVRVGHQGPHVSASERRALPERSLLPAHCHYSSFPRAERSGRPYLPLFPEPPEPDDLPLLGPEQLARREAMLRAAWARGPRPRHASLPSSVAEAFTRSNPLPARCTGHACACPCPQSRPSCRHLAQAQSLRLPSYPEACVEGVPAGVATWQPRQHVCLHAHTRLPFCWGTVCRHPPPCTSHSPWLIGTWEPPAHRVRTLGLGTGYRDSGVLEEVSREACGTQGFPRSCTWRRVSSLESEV
- TEST_SUMMARY: Electrophysiological assay at NMDA receptor subunits NR1A/2C expressed in Xenopus oocytes
- SETUP_CONDITIONS: rat clones in Xenopus oocytes, currents activated by glutamate (100 μM) and glycine (1-100 μM)
ASSAY_READOUT: pIC50
Answers are plain numbers, as −log10 of the molar value.

Worked examples follow.
>  <MOLECULE>
O=c1[nH]c2ccc([S+]([O-])CCN3CCC(Cc4ccc(F)cc4F)CC3)cc2o1 (centres unmarked)

>  <EXPERIMENTAL_SYSTEM>
NR1A /2C (Rattus norvegicus, UniProt P35439+Q00961)

>  <ASSAY_READOUT>
pIC50

>  <MEASURED>
3.89

$$$$
>  <MOLECULE>
O=c1[nH]c2ccc([S+]([O-])CCN3CCC(O)(Cc4ccc(F)cc4)CC3)cc2o1 (centres unmarked)

>  <EXPERIMENTAL_SYSTEM>
NR1A /2C (Rattus norvegicus, UniProt P35439+Q00961)

>  <ASSAY_READOUT>
pIC50

>  <MEASURED>
3.70

$$$$
>  <MOLECULE>
O=C(c1ccccc1)C1CCN(CC[S+]([O-])c2ccc3[nH]c(=O)oc3c2)CC1 (centres unmarked)

>  <EXPERIMENTAL_SYSTEM>
NR1A /2C (Rattus norvegicus, UniProt P35439+Q00961)

>  <ASSAY_READOUT>
pIC50

>  <MEASURED>
3.85

$$$$
>  <MOLECULE>
COc1ccc(CC2CCN(CC[S+]([O-])c3ccc4[nH]c(=O)oc4c3)CC2)cc1 (centres unmarked)

>  <EXPERIMENTAL_SYSTEM>
NR1A /2C (Rattus norvegicus, UniProt P35439+Q00961)

>  <ASSAY_READOUT>
pIC50

>  <MEASURED>
3.82

$$$$
>  <MOLECULE>
O=c1[nH]c2ccc([S+]([O-])CCN3CCC(Cc4ccc(Cl)cc4)CC3)cc2o1 (centres unmarked)

>  <EXPERIMENTAL_SYSTEM>
NR1A /2C (Rattus norvegicus, UniProt P35439+Q00961)

>  <ASSAY_READOUT>
pIC50

>  <MEASURED>
3.70

$$$$
>  <MOLECULE>
O=c1[nH]c2ccc([S+]([O-])CCN3CCC(Cc4cccc(F)c4F)CC3)cc2o1 (centres unmarked)

>  <EXPERIMENTAL_SYSTEM>
NR1A /2C (Rattus norvegicus, UniProt P35439+Q00961)

>  <ASSAY_READOUT>
pIC50

>  <MEASURED>
3.85

$$$$

Hey, quick one: what's pIC50 for each of these?
1. O=c1[nH]c2ccc([S+]([O-])CCN3CCC(Cc4ccc(F)cc4)CC3)cc2o1 (centres unmarked)
2. O=c1[nH]c2ccc([S+]([O-])CCN3CCC(Cc4ccccc4F)CC3)cc2o1 (centres unmarked)

stdout:
1: 3.72; 2: 4.22

---

- System: 6-Hydroxydopamine-lesioned rats
- TEST_SUMMARY: 6-OHDA Rat Assay: potentiation of contraversive rotation induced by L-DOPA methyl ester
- Format: in vivo, Sprague-Dawley rats
- SETUP_CONDITIONS: po; L-DOPA methyl ester 10 mg/kg SC; total contraversive rotations over 6 hour vs L-DOPA only
Assign 6-OHDA rat MED (minimum effective dose) to each entry below.
Numbers only, in mg/kg.

>  <COMPOUND>
Cc1ccc(CC2CCN(CC[S+]([O-])c3ccc4[nH]c(=O)oc4c3)CC2)cc1 (stereo not drawn)

>  <EXPERIMENTAL_SYSTEM>
6-Hydroxydopamine-lesioned rats

>  <UNIT_OF_MEASUREMENT>
mg/kg

>  <MEASURED>
3

$$$$

Dear colleague, could you send me 6-OHDA rat MED (minimum effective dose) for each of the items below? Thanks.
1. O=c1[nH]c2ccc([S+]([O-])CCN3CCC(Cc4ccc(Cl)cc4)CC3)cc2o1 (stereo not drawn)
2. O=c1[nH]c2ccc([S+]([O-])CCN3CCC(Cc4ccccc4F)CC3)cc2o1 (stereo not drawn)
3. O=c1[nH]c2ccc([S+]([O-])CCN3CCC(Cc4ccccc4)CC3)cc2o1 (stereo not drawn)
4. O=c1[nH]c2ccc([S+]([O-])CCN3CCC(Cc4ccc(Cl)cc4Cl)CC3)cc2o1 (stereo not drawn)
5. O=c1[nH]c2ccc([S+]([O-])CCN3CCC(Cc4ccc(F)cc4)CC3)cc2o1 (stereo not drawn) [Example 1]

stdout:
1: 3; 2: 10; 3: 3; 4: 10; 5: 1
